Target protein (sequence): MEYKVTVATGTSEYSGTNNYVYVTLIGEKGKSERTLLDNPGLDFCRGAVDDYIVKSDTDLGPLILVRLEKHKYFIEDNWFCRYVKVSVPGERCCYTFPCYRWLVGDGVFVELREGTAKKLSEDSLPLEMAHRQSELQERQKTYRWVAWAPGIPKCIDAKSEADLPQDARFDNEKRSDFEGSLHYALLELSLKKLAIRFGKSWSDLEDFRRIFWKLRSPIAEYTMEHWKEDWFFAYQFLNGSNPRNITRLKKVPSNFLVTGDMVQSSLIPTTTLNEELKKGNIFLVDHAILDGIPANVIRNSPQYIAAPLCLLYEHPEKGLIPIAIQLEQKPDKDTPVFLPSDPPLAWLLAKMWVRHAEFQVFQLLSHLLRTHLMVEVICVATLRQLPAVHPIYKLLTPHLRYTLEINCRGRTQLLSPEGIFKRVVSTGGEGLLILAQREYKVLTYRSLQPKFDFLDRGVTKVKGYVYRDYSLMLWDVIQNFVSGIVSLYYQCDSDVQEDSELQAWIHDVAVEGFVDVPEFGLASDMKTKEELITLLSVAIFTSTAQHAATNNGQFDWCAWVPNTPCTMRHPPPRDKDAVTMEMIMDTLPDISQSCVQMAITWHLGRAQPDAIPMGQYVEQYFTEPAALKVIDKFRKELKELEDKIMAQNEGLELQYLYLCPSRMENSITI
observable: IC50

## Input // returns reported IC50 for input CNc1oc(-c2cccc3ccccc23)nc1C#N
## Output > 100 µM

The measured values listed here are drawn from paper PMC7606739.
